# Target or system: HLA-A*69:01
# Assay comment: IEDB peptide-MHC binding, purified MHC/competitive/fluorescence; filed as Kd, often an IC50 or EC50 that approximates it; bounds were set here for any values at or beyond the usual limits of such assays
# Assay context: source organism: Pseudomonas aeruginosa PACS2
Metric name: Kd

residues=KLIDVSKCI result="≥ 20 µM"

---

# Target or system: HLA-A*30:02
# Assay comment: IEDB peptide-MHC binding, purified MHC/competitive/radioactivity; filed as Kd, often an IC50 or EC50 that approximates it; bounds were set here for any values at or beyond the usual limits of such assays
# Assay context: source organism: Mammarenavirus juninense
Metric name: Kd (nM)

residues=LYDVIPVTY quantitative_readout=4200
residues=ASAHVRQSEY quantitative_readout=5.79
